tested on: HCC-2998 colon; assay: NCI-60 one-dose screen, 48 h; details: 10 µM unless noted
This is part of a sample that, as a whole, favours compounds with a hit. Of some 83,000 tested, about 20% had one in any assay. Activity calls are given as the source filed them. The calls were made as follows: active = growth percent below 10; inactive = the rest.
Reply using exactly one outcome from 1 = active, -1 = inactive

Request: I would be grateful if you could indicate the recorded call for CC(C)c1ccc(NC(=O)Nc2ccc(NC(=O)c3ccccc3N)cc2)cc1 .
Response: -1

Request: Field entry: CCCCCCCCn1ccc2cc(NC(=O)Cn3cc(CN4CCOCC4)nn3)ccc21
Response: -1

Request: Field entry: COc1cccc(Nc2ccnc3[nH]c4ccc([N+](=O)[O-])cc4c23)c1
Response: -1

Request: Field entry: COc1ccc2c(c1)c(-c1nonc1-c1c[nH]c3ccc(Br)cc13)cn2C
Response: -1

Request: Field entry: COc1ccc(C(O)c2cc3c(N)c(C(=O)Nc4cccc(Cl)c4)sc3nc2C)cc1 (stereo not given)
Response: 1

Request: Field entry: CN(C)Cc1ccc(C(=O)Nc2ccc3ncnc(Nc4ccc(Oc5cccc(F)c5)c(Cl)c4)c3c2)cc1
Response: 1

Request: Field entry: Cc1ccc(O)c(NC(=O)c2ccc(CNc3ccnc(C(F)(F)F)c3)cc2)c1
Response: -1

Request: Field entry: COc1ccc(-c2ccc(=O)oc2C#Cc2cc(OC)c(OC)c(OC)c2)cc1O
Response: -1

Request: Field entry: O=C1CC2C=CCN2C=C1NC(=O)C1CCCCC1 (stereo not given)
Response: -1

Request: Field entry: Cc1nc2sc(C(=O)Nc3ccc(Cl)cc3)c(N)c2cc1C(O)c1ccccc1 (stereo not given)
Response: -1
